// values below are reported inhibition at 1 µM
- target under test: Amine oxidase [flavin-containing] B (Homo sapiens, UniProt P27338)
- Sequence (P27338 whole entry): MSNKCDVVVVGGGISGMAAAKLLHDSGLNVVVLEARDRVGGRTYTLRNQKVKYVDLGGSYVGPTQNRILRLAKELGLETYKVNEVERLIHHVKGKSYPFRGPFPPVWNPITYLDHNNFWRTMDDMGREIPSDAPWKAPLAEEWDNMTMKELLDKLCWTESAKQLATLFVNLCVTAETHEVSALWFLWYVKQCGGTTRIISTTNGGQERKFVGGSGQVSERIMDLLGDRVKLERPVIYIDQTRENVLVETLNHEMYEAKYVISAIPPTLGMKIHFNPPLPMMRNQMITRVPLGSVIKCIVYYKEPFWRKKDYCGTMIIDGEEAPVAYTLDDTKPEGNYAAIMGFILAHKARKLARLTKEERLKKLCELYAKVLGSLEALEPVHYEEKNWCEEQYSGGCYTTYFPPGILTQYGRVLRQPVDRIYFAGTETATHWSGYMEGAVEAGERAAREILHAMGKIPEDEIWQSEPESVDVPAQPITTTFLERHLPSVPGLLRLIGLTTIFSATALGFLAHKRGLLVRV
- procedure text: Inhibition of recombinant human MAO-B using benzylamine as substrate at 1 uM incubated for 20 mins by fluorescence microplate reader analysis relative to control
- study conditions: read-out: INH
Field format: number, assumed %, no unit text.

Below: 3 compounds and their reported inhibition at 1 µM.
O=C(Nc1cccc(Cl)c1Cl)c1ccc2c(c1)OCCO2 | 53
O=C(Nc1ccc2c(c1)OCCO2)c1ccc2c(c1)OCCO2 | 36.1
O=C(Nc1ccc2[nH]ncc2c1)c1ccc2c(c1)OCCO2 | 13.8

Looking for the measured inhibition at 1 µM of "O=C(Nc1ccccc1F)c1ccc2c(c1)OCCO2" , can you help? 19.1

Looking for the measured inhibition at 1 µM of "COc1ccc(NC(=O)c2ccc3c(c2)OCCO3)cc1Cl" , can you help? 27.4
